- assay-explanation: Antioxidant activity assessed as galvinoxyl radical scavenging activity measured up to 210 mins
- Assay type: functional

| molecule | readout-units | IC50 |
| --- | --- | --- |
| O=c1ccc2cc3ccoc3c(O)c2o1 [XANTHOTOXOL] | µM | 188 |
| Cc1coc2c(O)c3oc(=O)cc(C)c3cc12 | µM | 170 |
| Cc1cc(=O)oc2c(O)c3occc3cc12 | µM | 173 |
